- assay-procedure: Inhibition of […] in thapsigargin-stimulated human Jurkat T cells assessed as blockade of intracellular calcium flux by fluo-4-AM dye based FLIPR assay
- Format: cell-based
measure: pIC50
pIC50 is defined as minus the log10 of a concentration measured in mol/L.

Consider the compound shown here: COc1ccc(OC)c(-c2ccc(NC(=O)c3ccncc3F)cc2)c1 What is its recorded pIC50? 5.85

====

- study-target: Calcium release-activated calcium channel protein 1 (Homo sapiens, UniProt Q96D31)
- Sequence (Q96D31 whole entry): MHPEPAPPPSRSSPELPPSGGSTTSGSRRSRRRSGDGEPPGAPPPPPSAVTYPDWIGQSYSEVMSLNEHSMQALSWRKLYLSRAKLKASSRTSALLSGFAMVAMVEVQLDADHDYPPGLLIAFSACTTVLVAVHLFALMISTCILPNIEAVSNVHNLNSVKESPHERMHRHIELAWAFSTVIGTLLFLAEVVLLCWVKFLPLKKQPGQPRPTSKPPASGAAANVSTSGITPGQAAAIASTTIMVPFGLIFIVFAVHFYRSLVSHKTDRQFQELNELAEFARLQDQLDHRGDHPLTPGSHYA
- assay-procedure: Inhibition of […] Orai1-medited store operated calcium entry in human MDA-MB-231 cells pretreated for 15 mins followed by BAPTA addition by PBX dye based FLIPR assay
IC50 by entry:
State the value with its unit after it.

> print(dat)
                                   compound  measure    val
1  COc1cccc(CC(=O)N2N=C(c3cccc(C)c3)CC2(O)C(F)(F)F)c1 (stereo not given)     IC50  32 µM
2  O=C(Cc1ccccc1)N1N=C(c2ccc3c(c2)CCCC3)CC1(O)C(F)(F)F (stereo not given)     IC50  89 µM
3  O=C(Cc1ccccc1)N1N=C(c2cc(Cl)ccc2Cl)CC1(O)C(F)(F)F (stereo not given)     IC50  54 µM

Consider the compound shown here: Cc1ccccc1C1=NN(C(=O)Cc2ccc(Cl)cc2)C(O)(C(F)(F)F)C1 (stereo not given) What is its recorded IC50? 47 µM

Same question for Cc1ccccc1C1=NN(C(=O)Cc2ccccc2Cl)C(O)(C(F)(F)F)C1 (stereo not given) please. 40 µM

Same question for Cc1ccc(CC(=O)N2N=C(c3ccccc3C)CC2(O)C(F)(F)F)cc1 (stereo not given) please. 55 µM

Same question for Cc1ccccc1C1=NN(C(=O)COc2ccccc2)C(O)(C(F)(F)F)C1 (stereo not given) please. 105 µM

Same question for Cc1cccc(CC(=O)N2N=C(c3ccccc3C)CC2(O)C(F)(F)F)c1 (stereo not given) please. 42 µM

Same question for Cc1cccc(C2=NN(C(=O)Cc3ccccc3Cl)C(O)(C(F)(F)F)C2)c1 (stereo not given) please. 42 µM

Same question for O=C(Cc1ccccc1)N1N=C(c2ccccc2Cl)CC1(O)C(F)(F)F (stereo not given) please. 33 µM

====

- study-target: Calcium release-activated calcium channel protein 1 (Homo sapiens)
- assay-procedure: Inhibition of […] Orai1-medited store operated calcium entry in human MDA-MB-231 cells pretreated for 15 mins followed by BAPTA addition by PBX dye based FLIPR assay
IC50 by entry:
Answer format: numeric, µM implied, no suffix.

Example entries begin here.
> print(dat)
                                   compound  val
1  COc1ccc(CC(=O)N2N=C(c3cccc(C)c3)CC2(O)C(F)(F)F)cc1 (stereo not given)   33
2  O=C(Cc1ccccc1)N1N=C(C(F)(F)F)CC1(O)c1ccccc1C(F)(F)F (stereo not given)   49
3  Cc1ccccc1C1=NN(C(=O)Cc2cccc(Cl)c2)C(O)(C(F)(F)F)C1 (stereo not given)   79

Consider the compound shown here: O=C(Cc1ccccc1)N1N=C(c2ccc(Cl)cc2Cl)CC1(O)C(F)(F)F (stereo not given) What is its recorded IC50? 58

Same question for Cc1cccc(C2=NN(C(=O)Cc3ccc(Cl)cc3)C(O)(C(F)(F)F)C2)c1 (stereo not given) please. 60
